Tested on: Staphylococcus aureus
Assay: Compound was tested for antibacterial activity against MRSA ATCC 33591, expressed as minimum bactericidal concentration (MBC)
Format: functional
EXPERIMENTAL_ENDPOINT: MBC (µg/mL)
Value expressed in µg/mL; do not type the unit.

As a guide, the following entries are already answered.
>>> print(df.to_string())
                                   compound  experimental_endpoint  value_units  value_observed
0  CCCCCCOC(=O)c1cc(O)c(O)c(O)c1 [HEXYL GALLATE]                    MBC        µg/mL             200
1              CCCCCCCCCCCOC(=O)c1cccc(O)c1                    MBC        µg/mL              50
2  CCCCCCCCCCCOC(=O)c1cc(O)c(O)c(O)c1 [UNDECYL GALLATE]                    MBC        µg/mL              25
3  CCCCCCCCOC(=O)c1cc(O)c(O)c(O)c1 [OCTYL_GALLATE]                    MBC        µg/mL              50

The compound listed as CCCCCCCOC(=O)c1cc(O)c(O)c(O)c1 [HEPTYL GALLATE] has a reported MBC of 100

The compound listed as CCCCCCCCCCCOC(=O)c1cc(O)cc(O)c1 has a reported MBC of 50

The compound listed as CCCCCCCCCCOC(=O)c1cc(O)c(O)c(O)c1 [DECYL GALLATE] has a reported MBC of 25

The compound listed as CCCCCCCCCCCCOC(=O)c1cc(O)c(O)c(O)c1 [DODECYL GALLATE] has a reported MBC of 25

The compound listed as CCCOC(=O)c1cc(O)c(O)c(O)c1 [PROPYL GALLATE] has a reported MBC of 3200

The compound listed as CCCCCCCCCOC(=O)c1cc(O)c(O)c(O)c1 [NONYL GALLATE] has a reported MBC of 50
